System: OVCAR-5
Experiment: NCI tumour cell line growth inhibition, 48 h
Activity calls are given as the source filed them. Rule as the data show it: active = GI50 up to about 1.1 µM and inactive = higher.
VALUE_TYPE: GI50

A selection of reference data follows.
Cc1ccc(S(=O)(=O)n2ccc(-c3ccc4ccn(S(=O)(=O)c5ccc(C)cc5)c4c3)c2)cc1; > 100 µM (inactive)
CCOC(=O)c1c(C)[n+]([O-])c2cc(Cl)c(Cl)cc2[n+]1[O-]; 43.6 µM (inactive)
CCN(CC)C(=O)c1cc(OC(C)C)ccc1-c1c(C)cc(OC(C)C)c(OC)c1OC; > 100 µM (inactive)

Problem: Please give measured GI50 of the following entry: O=c1n(-c2ccccc2)c(=O)n2n1C1Cc3ccccc3C12 (stereo not given)
Solution: > 100 µM (inactive)

Problem: Please give measured GI50 of the following entry: O=CN1CCN(C(=O)c2ccc(Cl)cc2Cl)C1=S
Solution: > 100 µM (inactive)

----------
Tested on: SK-OV-3
Test: NCI tumour cell line growth inhibition, 48 h
The source made the active and inactive calls. No stated cut-off is given here; in the data, active = GI50 up to about 1.1 µM and inactive = higher.
In this exercise, the only acceptable responses are true = active, false = inactive

Check out these entries, answers already filled in.
CC[C@](O)(C(=O)O)c1cc2n(c(=O)c1CO)Cc1cc3ccccc3nc1-2; true
CC(C)(C)OC(=O)N1C2CCCC23O[C@@H]1c1cc2c(cc1C3=O)OCO2 (stereo partly specified); false
COC(=O)OC[C@H]1O[C@@H](n2cc(C)c(=O)[nH]c2=O)CC1OC(=O)OC (stereo partly specified); false
COc1ccc(/C=N/c2c(O)ccc3ccccc23)cc1OC; false
COc1ccccc1C(N)c1ccccc1 (stereo unspecified); false

Problem: GET /call?item= CCSCC(=O)N1CCc2c([nH]c3ccccc23)C1=O returns the recorded outcome of this test.
Solution: false

Problem: GET /call?item= CCCCCCOP(=O)(OCCCCCC)OC(C(=O)OC)C(F)(F)F (stereo unspecified) returns the recorded outcome of this test.
Solution: false

Problem: GET /call?item= Cc1cc2c(cc1C)[n+]([O-])c(-c1c(Cl)cccc1Cl)c(N)[n+]2[O-] returns the recorded outcome of this test.
Solution: false

Problem: GET /call?item= O=C(O)c1cc(-c2ccc3cc4c(cc3c2)OCO4)nc2ccccc12 returns the recorded outcome of this test.
Solution: false

Problem: GET /call?item= CCOC1NC(=O)Oc2cc3ccccc3cc21 (stereo unspecified) returns the recorded outcome of this test.
Solution: false

Problem: GET /call?item= CO[C@H]1C=C[C@@]23c4cc5c(cc4CO[C@]2(O)CN(C)[C@H]3C1)OCO5 returns the recorded outcome of this test.
Solution: false

----------
Tested on: KM-20L2
Test: NCI tumour cell line growth inhibition, 48 h
The source made the active and inactive calls. Cut-off read from the data, not from the text of the source: active = GI50 up to about 1.1 µM and inactive = higher.
In this exercise, the only acceptable responses are active, inactive

Check out these entries, answers already filled in.
O=C1CCC(c2ccccc2)=NN1c1nsc2ccccc12; inactive
COc1ccc2c(c[n+](C)c3c4cc5c(cc4ccc23)OCO5)c1OC [CHELERYTHRINE CHLORIDE]; inactive

Now for another entry.
Problem: GET /call?item= COc1cc(C(=O)NC2CCc3cc(OC)c(OC)c(OC)c3-c3ccc(OC)c(=O)cc32)cc(OC)c1OC (stereo not drawn) returns the recorded outcome of this test.
Solution: active

----------
Tested on: UACC-257
Assay: NCI tumour cell line growth inhibition, 48 h
Activity calls are given as the source filed them. Cut-off read from the data, not from the text of the source: active = GI50 up to about 1.1 µM and inactive = higher. Where a SMILES comes first, the peptide text is derived from it. [ ]: non-standard residue; d: D form. The star is where a group is joined. Phe(4-NO2) = N[CH](Cc1ccc([N+](=O)[O-])cc1)C(=O)O; Cbz = O=C(OCc1ccccc1)*
VALUE_TYPE: GI50

CCn1c(=O)nc2n(-c3ccccc3)c3ccccc3nc-2c1=O; 16.7 µM (inactive)
CCOC(=O)CCC(NC(=O)OCc1ccccc1)C(=O)NC(CCC(=O)OCC)C(=O)NC(Cc1ccc([N+](=O)[O-])cc1)C(=O)NC(CCC(=O)OCC)C(=O)NC(CCC(=O)OCC)C(=O)OCC (stereo not drawn) (Cbz-E(OEt)E(OEt)[Phe(4-NO2)]E(OEt)E(OEt)-OEt; configuration not given here); > 100 µM (inactive)

Would you kindly look at the next entry?
Problem: Please give measured GI50 of the following entry: COc1ccc(C(=O)/C=C/c2ccc(OCCCCCCCCCCOc3ccc(/C=C/C(=O)c4ccc(OC)c(OC)c4)cc3)cc2)c(OC)c1
Solution: > 100 µM (inactive)
